test: Peptide secondary structure by ATR-FTIR in the absence or presence of heparin; format: physicochemical; conditions: ATR-FTIR, 1679 cm^-1; peptide alone, 100 µM in PBS
Would you kindly list Percentage of structural elements: Turn for each of these sequences?
# unit: % | format: bare number

*Q* For the sequence shown here, RRRWRRWRR [aR7W2] , give the reported Percentage of structural elements: Turn.
*A* 35

*Q* What value of Percentage of structural elements: Turn has been reported for the following sequence? RRWWRRWWR [aR5W4]
*A* 36

*Q* Which measured Percentage of structural elements: Turn value corresponds to RRWWRRWRR [aR6W3] ?
*A* 40

*Q* State the recorded Percentage of structural elements: Turn for this entry: RRWRRRRWW [nR6W3]
*A* 31

*Q* I'd like to know its Percentage of structural elements: Turn. The sequence in question is RWWWWRRRR [nR5W4]
*A* 35

----------
Can you tell me Percentage of structural elements: Random coil for the items I'm about to list?
assay: Peptide secondary structure by ATR-FTIR in the absence or presence of heparin; type: physicochemical; settings: ATR-FTIR, 1643 cm^-1; peptide alone, 100 µM in PBS
Kindly answer with a numeric value in %, unit omitted.

*Q* I am curious: what Percentage of structural elements: Random coil value has been reported for RRWWRRWWR [aR5W4] ?
*A* 24

*Q* Give the measured Percentage of structural elements: Random coil of RWWWWRRRR [nR5W4] .
*A* 22

*Q* Bench note: what Percentage of structural elements: Random coil did RRRWRRWRR [aR7W2] show?
*A* 18

*Q* Given the entry RRWRRRRWW [nR6W3] , report its measured Percentage of structural elements: Random coil.
*A* 23

*Q* Quick one: Percentage of structural elements: Random coil for RRWWRRWRR [aR6W3] ?
*A* 17

----------
So I've got a bunch of sequences here, and I need their TΔS values.
experiment: Peptide binding to POPG LUVs studied by ITC; settings: POPG LUVs into peptide, PBS, one site model, once or twice
Write it as a number; the unit kcal/mol goes unstated.

*Q* Entry under review: RWWWWRRRR [nR5W4] . Reported TΔS?
*A* 5.7

*Q* Using the record for RRWRRRRWW [nR6W3] , report its TΔS.
*A* 6.5

*Q* What value of TΔS has been recorded for this entry: RRRRRRRRW [Peptide R8W1-2]
*A* 6.7

*Q* Given the entry RRRWRRWRR [aR7W2] , report its measured TΔS.
*A* 6.2

*Q* // query TΔS value for entry RRWWRRWRR [aR6W3]
*A* 5.7

*Q* Sample RWRWRRRRR [nR7W2] — what was its TΔS?
*A* 6.7

*Q* Entry under review: RRRRWRRRR [Peptide R8W1-1] . Reported TΔS?
*A* 6.2

----------
assay: Peptide secondary structure by ATR-FTIR in the absence or presence of heparin; format: physicochemical; conditions: ATR-FTIR, 1659 cm^-1; peptide alone, 100 µM in PBS
property.name: Percentage of structural elements: α-Helix (%)
Quick reminder: number only, in %, skip the unit.

*Q* Could you tell me which Percentage of structural elements: α-Helix is on file for RRWRRRRWW [nR6W3] ?
*A* 25

*Q* Entry RRWWRRWRR [aR6W3] has what Percentage of structural elements: α-Helix?
*A* 30

*Q* // Percentage of structural elements: α-Helix lookup, key: RRWWRRWWR [aR5W4]
*A* 29

----------
assay: Peptide binding to heparin studied by ITC; settings: heparin into peptide, PBS, one site model, average of two experiments
I'd be grateful if you could share measured TΔS for these entries.

*Q* Which measured TΔS value corresponds to RRRRRRRRR [Peptide R9] ?
*A* -60.5 kcal/mol

*Q* Need TΔS, item RRWWRRWWR [aR5W4]
*A* -165.9 kcal/mol

*Q* For the sequence RWWWWRRRR [nR5W4] , what TΔS is on record?
*A* -169.0 kcal/mol

Source of measurements: paper doi:10.1101/717207v1
